# Lookup of reported pEC50 keyed by entry
- tested system: T1, human IL-36R on cells (human, UniProt Q9HB29 20-575)
- T1 construct: whole, on cells; also called full-length human IL-36R on HEK293 transfectants; HEK-IL-36R cells
- T1 sequence (looked up): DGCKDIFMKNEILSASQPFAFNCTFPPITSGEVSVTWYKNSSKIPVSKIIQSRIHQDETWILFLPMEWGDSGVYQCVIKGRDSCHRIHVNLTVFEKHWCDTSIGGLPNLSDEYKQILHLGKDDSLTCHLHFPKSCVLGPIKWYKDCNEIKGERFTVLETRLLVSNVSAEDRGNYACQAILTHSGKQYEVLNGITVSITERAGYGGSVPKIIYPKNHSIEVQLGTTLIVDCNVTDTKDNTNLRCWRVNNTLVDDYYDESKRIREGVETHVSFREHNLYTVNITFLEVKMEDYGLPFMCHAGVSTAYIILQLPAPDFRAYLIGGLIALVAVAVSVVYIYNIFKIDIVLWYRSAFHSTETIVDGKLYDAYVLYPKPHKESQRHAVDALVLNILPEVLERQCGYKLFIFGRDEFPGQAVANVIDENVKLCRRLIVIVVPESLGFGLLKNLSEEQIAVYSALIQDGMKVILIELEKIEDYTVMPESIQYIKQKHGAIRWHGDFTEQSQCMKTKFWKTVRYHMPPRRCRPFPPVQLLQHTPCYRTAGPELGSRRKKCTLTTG
- run description: flow cytometry, HEK293 cells transfected with full-length human IL-36R
Keep it numeric: pEC50 is minus log10 of the concentration in mol/L.

{"columns": ["binder", "attribute measured", "quantitative readout"],
 "data": [
  ["antibody 89A12 (antibody, V domains shown, Mouse monoclonal from hybridoma; also called 89A12B8) VH: EVQLQQSGAELVRPGASVRLSCTASGFNIKDDYIHWVRQRPKQGLEWLGRIDPANGNTKYDPRFQDKATITADTSSNTAYLHLSSLTSEDTAVYYCAKSFPDNYYSYDDAFAYWGQGTLVTVSA VL: DIQMTQSPASQSASLGESVTFSCLASQTIGTWLGWYQQKPGKSPQLLIYRATSLADGVPSRFSGSGSGTNFSFKISSLQAEDLASYYCQQLYSGPYTFGGGTKLEIR", "pEC50", 9.22]
]}

Look up pEC50: antibody 67E7 (antibody, V domains shown, Mouse monoclonal from hybridoma; also called 67E7E8) VH: EVQLQQSGAEFVRPGASVKFSCTASGFNIKDDYIHWVRQRPEQGLEWVGRIDPANGNTKYAPKFQDKATITADTSSNTAYLQLSSLTSEDTAVYYCAKSFPNNYYSYDDAFAYWGQGTLVTVSA VL: DIQMTQSPASQSASLGESVTFTCLASQTIGTWLGWYQQKPGKSPQLLIYRSTTLADGVPSRFSGSGSGTKFSFKISSLQAADFASYYCQQLYSAPYTFGGGTKLEIR
9.27

Look up pEC50: antibody 33D10 (antibody, V domains shown, Mouse monoclonal from hybridoma; also called 33D10B12; Mouse 33D10) VH: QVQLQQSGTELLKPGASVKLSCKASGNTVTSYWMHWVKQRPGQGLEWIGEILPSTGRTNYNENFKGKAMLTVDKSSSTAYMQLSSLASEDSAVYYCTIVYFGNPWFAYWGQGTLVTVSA VL: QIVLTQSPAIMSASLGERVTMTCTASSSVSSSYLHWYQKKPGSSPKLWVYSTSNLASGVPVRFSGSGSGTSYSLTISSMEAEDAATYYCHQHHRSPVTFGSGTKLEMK
9.32
